Exercise: for every item that follows, state its recorded Imax.
target: Phospholipase A2, membrane associated (Homo sapiens) (UniProt P14555)
Sequence (P14555 whole entry): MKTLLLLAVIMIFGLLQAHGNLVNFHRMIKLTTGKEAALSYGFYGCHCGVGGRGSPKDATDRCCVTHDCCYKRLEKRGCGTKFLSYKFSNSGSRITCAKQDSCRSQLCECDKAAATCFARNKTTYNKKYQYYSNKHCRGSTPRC
experiment.description: Inhibition of sPLA2-IIA (unknown origin)-integrin alphaVbeta3 interaction in human K562 cells pretreated for 30 mins to immobilized sPLA2 before adding cells by phosphatase assay relative to BSA
Format: cell-based
Write down the numeric answer in % and omit the unit.

Please look up its Imax: Cc1nc(NC(=O)c2ccccc2)sc1-c1cc(C(=O)NCC(=O)N[C@H](CCCNC(=N)N)C(=O)NCC(=O)N[C@H](CC(=O)O)C(=O)N[C@H](CC(=O)O)C(=O)N[C@H](CC(=O)O)C(=O)O)[nH]n1 93

Could you tell me which Imax is on file for Cc1nc(NC(=O)c2ccccc2)sc1-c1cc(C(=O)NCC(=O)N[C@H](CCCNC(=N)N)C(=O)NCC(=O)O)[nH]n1 ? 81

// Imax lookup, key: Cc1nc(NC(=O)c2ccccc2)sc1-c1cc(C(=O)NCC(=O)O)[nH]n1 98

So what's the measured Imax for this one? CC[C@H](C)[C@H](NC(=O)[C@@H](CC(=O)O)NC(=O)[C@H](Cc1c[nH]c2ccccc12)NC(=O)[C@H](C)NC(=O)c1cc(-c2sc(NC(=O)c3ccccc3)nc2C)n[nH]1)C(=O)O 85

Attribution: ChEMBL document CHEMBL2331538
